Test: in vitro
Details: rat, gh3-tre-luc cells, AC50 (uM) modified / 1000, Tox21_110001=Tox21_200693; viability, 1 nM T3 present, 24 h
measureName: CC50 at 24 h (µM)

1. Cn1c(N)nc2c3cccnc3ccc21	36.1

---

Test: in vitro
Conditions: rat, gh3-tre-luc cells, AC50 (uM) modified / 1000, Tox21_110001=Tox21_112123; viability, 1 nM T3 present, 24 h
measureName: CC50 at 24 h

1. CNC(=O)NC(O)C(Cl)(Cl)Cl (stereo not shown) [Mecloralurea]	> 50 µM

---

Assay: in vitro
Details: rat, gh3-tre-luc cells, AC50 (uM) modified / 1000, Tox21_110001=Tox21_301917; viability, 1 nM T3 present, 24 h
measureName: CC50 at 24 h

1) CCOP(=O)(O)C(N)=O	> 90 µM

---

Assay: in vitro
Conditions: rat, gh3-tre-luc cells, AC50 (uM) modified / 1000, Tox21_110001=Tox21_302560; viability, 1 nM T3 present, 24 h
measureName: CC50 at 24 h

1) Nc1ccccc1C(=O)Oc1ccc2ccccc2c1 [Naphthalen-2-yl 2-aminobenzoate]	> 90 µM

---

Assay: in vitro
Conditions: rat, gh3-tre-luc cells, AC50 (uM) modified / 1000, Tox21_110001=Tox21_202465; viability, 1 nM T3 present, 24 h
measureName: CC50 at 24 h

1. ClCC(Cl)Cl [1,1,2-Trichloroethane]	> 90 µM

---

Assay: Global cytotoxicity: eighteen Tox21 cell viability assays
Type: cell-based
Conditions: median over 18 Tox21 cell viability assays (Judson et al. 2016, invitrodb_v2); read-out: Global cytotoxicity AC50 median
measureName: AC50

1. CC1=C(/C=C/C(C)=C\C=C\C(C)=C\C(=O)O)C(C)(C)CCC1 [9-cis Retinoic acid, reference compound]	> 92 µM
2. N[C@@H](Cc1ccc(Oc2cc(I)c(O)c(I)c2)c(I)c1)C(=O)O [3,3ʹ,5ʹ-Triiodo-L-thyronine]	> 92 µM
3. C[C@]12CC[C@H]3C(=CCc4cc(O)ccc43)[C@@H]1CCC2=O [Equilin, reference compound]	> 92 µM
4. N[C@@H](Cc1cc(I)c(Oc2cc(I)c(O)c(I)c2)c(I)c1)C(=O)O [Levothyroxine, reference compound]	> 92 µM
5. O=C(O)Cc1cc(I)c(Oc2cc(I)c(O)c(I)c2)c(I)c1 [Tetrac, 3,3ʹ,5,5ʹ-tetraiodothyroacetic acid]	35.7 µM
6. COc1cc(C)c(/C=C/C(C)=C/C=C/C(C)=C/C(=O)O)c(C)c1C [Acitretin, reference compound]	> 92 µM
7. CC1=C(/C=C/C(C)=C/C=C/C(C)=C\C(=O)O)C(C)(C)CCC1 [13-cis Retinoic acid, reference compound]	46.3 µM
8. CC(C)(C)CC(C)(C)c1ccc(O)c(Cc2ccc(Cl)cc2Cl)c1 [Clofoctol, reference compound]	16.7 µM
9. CC1=C(/C=C/C(C)=C/C=C/C(C)=C/C(=O)O)C(C)(C)CCC1 [all trans-Retinoic acid, reference compound]	> 92 µM

---

Test: in vitro
Conditions: rat, gh3-tre-luc cells, AC50 (uM) modified / 1000
Counter-ions that a name gives are not always drawn.
measureName: CC50 at 24 h

1) Oc1nc(Cl)c(Cl)cc1Cl	> 90 µM
2) COCCOC(=O)c1ccccc1C(=O)OCCOC [Di(2-methoxyethyl) phthalate]	> 90 µM
3) O=C(c1ccc(O)cc1)c1ccc(O)c(O)c1O [2,3,4,4'-Tetrahydroxybenzophenone]	> 90 µM
4) CCCC(=O)OC/C=C(\C)CCC=C(C)C [Geranyl butyrate]	> 90 µM
5) O=C(O)c1cc(Oc2ccc(C(F)(F)F)cc2Cl)ccc1[N+](=O)[O-] [Acifluorfen-sodium]	> 90 µM
6) CC(=O)C(Cl)(Cl)Cl	13.3 µM
7) CC1=C[C@H](O)CC(C)(C)[C@H]1/C=C/C(C)=C/C=C/C(C)=C/C=C/C=C(C)/C=C/C=C(C)/C=C/C1=C(C)C[C@@H](O)CC1(C)C	28.4 µM
8) O=C(O)c1cn(-c2ccc(F)cc2)c2cc(N3CCNCC3)c(F)cc2c1=O [Sarafloxacin hydrochloride]	> 50 µM
9) Cc1c(NC(=O)c2cccnc2)c(=O)n(-c2ccccc2)n1C	> 20 µM

---

Test: in vitro
Conditions: rat, gh3-tre-luc cells, AC50 (uM) modified / 1000, Tox21_110001=Tox21_112042; viability, 1 nM T3 present, 24 h
measureName: CC50 at 24 h

1. CC(=O)[C@H]1CC[C@H]2[C@@H]3CC[C@@H]4C[C@H](O)CC[C@]4(C)[C@H]3CC[C@]12C	> 50 µM

---

System: GH3-TRE-Luc cell line
Details: read-out: AC50 (uM) modified / 1000; Tox21_110001=Tox21_302783; viability, 1 nM T3 present, 24 h
measureName: CC50 (µM)

1. NCCNc1cccc2ccccc12	26

---

Test system: GH3-TRE-Luc cell line
Settings: read-out: AC50 (uM) modified / 1000; Tox21_110001=Tox21_110804; viability, 1 nM T3 present, 24 h
measureName: CC50 (µM)

1) CC1(C)[C@@H](O)CC[C@]2(C)[C@H]3C(=O)C=C4[C@@H]5C[C@@](C)(C(=O)O)CC[C@]5(C)CC[C@@]4(C)[C@]3(C)CC[C@@H]12	24.8

---

System: GH3-TRE-Luc cell line
Conditions: read-out: AC50 (uM) modified / 1000; Tox21_110001=Tox21_112781; viability, 1 nM T3 present, 24 h
measureName: CC50 (µM)

1) CC(=O)O[C@@]12CO[C@@H]1C[C@H](O)[C@@]1(C)C(=O)[C@H](O)C3=C(C)[C@@H](OC(=O)[C@H](O)[C@@H](NC(=O)OC(C)(C)C)c4ccccc4)C[C@@](O)([C@@H](OC(=O)c4ccccc4)[C@H]21)C3(C)C	0.0619

---

Assay: in vitro
Conditions: rat, gh3-tre-luc cells, AC50 (uM) modified / 1000, Tox21_110001=Tox21_200105; viability, 1 nM T3 present, 24 h
measureName: CC50 at 24 h (µM)

1) Oc1cc(Cl)c(Cl)c(Cl)c1Cl	29.2

---

Test: in vitro
Settings: rat, gh3-tre-luc cells, AC50 (uM) modified / 1000, Tox21_110001=Tox21_200120; viability, 1 nM T3 present, 24 h
measureName: CC50 at 24 h

1. O=Cc1ccc2c(c1)OCO2 [Piperonal]	> 90 µM

---

Test system: GH3-TRE-Luc cell line
Conditions: read-out: AC50 (uM) modified / 1000; Tox21_110001=Tox21_303111; viability, 1 nM T3 present, 24 h
measureName: CC50 (µM)

1. c1cnc2c(c1)ccc1cccnc12 [1,10-Phenanthroline]	66.2

---

Test: in vitro
Settings: rat, gh3-tre-luc cells, AC50 (uM) modified / 1000, Tox21_110001=Tox21_112931; viability, 1 nM T3 present, 24 h
measureName: CC50 at 24 h

1. CCc1cc2c(s1)-n1c(C)nnc1CN=C2c1ccccc1Cl [Etizolam]	> 50 µM

---

Tested on: Tox21 cell viability assays (different cell types)
Assay: Global cytotoxicity: eighteen Tox21 cell viability assays
Format: cell-based
Where a name gives a salt, the structure may show the parent alone.
measureName: GLOBAL CYTOTOXICITY cytotox.number_Active

1. NCC(=O)CCC(=O)O [Aminolevulinic acid hydrochloride]	0
2. N[C@@H](Cc1ccc(Oc2cc(I)c(O)c(I)c2)c(I)c1)C(=O)O [3,3',5'-Triiodo-L-thyronine]	0
3. O=C(O)CCNC(=O)c1ccccc1 [Betamipron, reference compound]	0
4. Cc1cccc(C)c1[N+](=O)[O-] [1,3-Dimethyl-2-nitrobenzene]	0
5. Cc1occc(=O)c1O [Maltol]	0
6. Cc1ccc(O)cc1 [Cresol]	0

---

Assay: in vitro
Settings: rat, gh3-tre-luc cells, AC50 (uM) modified / 1000, Tox21_110001=Tox21_202199; viability, 1 nM T3 present, 24 h
measureName: CC50 at 24 h

1) CN(C)NC(=O)CCC(=O)O [Daminozide]	> 90 µM

---

System: GH3-TRE-Luc cell line
Details: read-out: AC50 (uM) modified / 1000; Tox21_110001=Tox21_300656; viability, 1 nM T3 present, 24 h
measureName: CC50

1) Oc1ccc(C(c2ccc(O)cc2)C(Cl)(Cl)Cl)cc1	55.1 µM

---

Experiment: in vitro
Details: rat, gh3-tre-luc cells, AC50 (uM) modified / 1000, Tox21_110001=Tox21_301901; viability, 1 nM T3 present, 24 h
measureName: CC50 at 24 h

1) CCCN(CCC)c1c([N+](=O)[O-])cc(S(C)(=O)=O)cc1[N+](=O)[O-]	> 90 µM

Source of measurements: paper PMC6792352
